Each entry below lists one item and its recorded inhibition at 1 µM value.
Target: FGFR1 (Homo sapiens, UniProt P11362)
Sequence (P11362 22-822): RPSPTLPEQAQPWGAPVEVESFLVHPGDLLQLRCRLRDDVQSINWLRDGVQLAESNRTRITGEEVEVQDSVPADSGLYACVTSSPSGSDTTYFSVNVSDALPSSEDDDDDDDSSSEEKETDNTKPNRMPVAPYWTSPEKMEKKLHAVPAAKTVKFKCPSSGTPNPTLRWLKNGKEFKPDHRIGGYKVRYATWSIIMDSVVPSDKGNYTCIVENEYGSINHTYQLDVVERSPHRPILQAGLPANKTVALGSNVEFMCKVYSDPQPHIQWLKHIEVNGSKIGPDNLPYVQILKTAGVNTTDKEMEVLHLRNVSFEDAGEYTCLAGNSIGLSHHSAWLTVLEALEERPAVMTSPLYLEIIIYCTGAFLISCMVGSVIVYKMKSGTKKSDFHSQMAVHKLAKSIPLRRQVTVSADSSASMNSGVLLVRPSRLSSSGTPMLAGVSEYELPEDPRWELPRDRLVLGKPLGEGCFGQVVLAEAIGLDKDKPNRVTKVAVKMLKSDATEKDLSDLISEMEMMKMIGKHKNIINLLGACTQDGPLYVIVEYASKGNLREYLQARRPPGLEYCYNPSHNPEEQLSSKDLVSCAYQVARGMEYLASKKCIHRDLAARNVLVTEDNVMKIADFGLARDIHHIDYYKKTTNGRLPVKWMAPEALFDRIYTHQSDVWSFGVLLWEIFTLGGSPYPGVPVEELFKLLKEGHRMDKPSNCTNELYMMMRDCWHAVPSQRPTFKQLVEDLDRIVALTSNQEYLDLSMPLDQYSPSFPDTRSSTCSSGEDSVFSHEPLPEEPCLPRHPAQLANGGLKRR
Assay: SelectScreen Profiling, Z'-LYTE kinase assay, FGFR1
Assay type: biochemical
Conditions: 1 μM compound, ATP at Km, read-out: FGFR 1 inh % @1 μM
From the text: Some of the example compounds were submitted to Life Technologies Corporation SelectScreen® Profiling Service to test their potency in inhibiting the kinase catalytic activities of mTOR, PI3Kα, VEGF2, FGFR1, HER1 (EGFR) and HER2. A concentration of ATP at the Km of the corresponding kinase was used for all assays. The mTOR (FRAP1), VEGF2, FGFR1, HER1 (EGFR) and HER2 assays used Z′-LYTE® technology. The PI3Kα assay used Adapta® technology. […]

O=C(Nc1ccc(-c2nc(N3CCOCC3)c3cccn3n2)cc1)Nc1cccnc1 [Example 14] : 1%
CN(C)CCNC(=O)c1ccc(NC(=O)Nc2ccc(-c3nc(N4CCOCC4)c4cccn4n3)cc2)cc1 [Example 45] : 4%
CN(C)[C@@H]1CCN(C(=O)c2ccc(NC(=O)Nc3ccc(-c4nc(N5CCOCC5)c5cccn5n4)cc3)cc2)C1 [Example 58] : 4%

Look up inhibition at 1 µM for this molecule: CN(C)C1CCN(C(=O)c2ccc(NC(=O)Nc3ccc(-c4nc(N5CCOCC5)c5cccn5n4)cc3)cc2)CC1 [Example 15]
4%

Likewise for CC(C)(C)C(=O)OCCNC(=O)Nc1ccc(-c2nc(N3C[C@H]4CC[C@@H](C3)O4)c3cccn3n2)cc1 [Example 133] ?
4%

====

System: HCT-116
Assay: NCI60 panel growth inhibition, HCT-116
Assay type: cell-based
Conditions: Homo sapiens
Listed here are compounds together with their documented GI50.
Return type: number; implicit unit µM.

OCCNC(=S)Nc1ccc(-c2nc(N3C[C@H]4CC[C@@H](C3)O4)c3cccn3n2)cc1 : 0.364
CN1CCN(C(=O)c2ccc(NC(=O)Nc3ccc(-c4nc(N5CCOCC5)c5cccn5n4)cc3)cc2)CC1 : 0.0602
O=C(Nc1ccc(-c2nc(N3CCOCC3)c3cccn3n2)cc1)Nc1cccnc1 : 0.041

Attention now turns to another entry.
Returns the measured GI50 for the input compound. Input: CN(C)C1CCN(C(=O)c2ccc(NC(=O)Nc3ccc(-c4nc(N5CCOCC5)c5cccn5n4)cc3)cc2)CC1
0.0657

====

Molecular target: HER1 (EGFR) (Homo sapiens)
Sequence (P00533 25-1210): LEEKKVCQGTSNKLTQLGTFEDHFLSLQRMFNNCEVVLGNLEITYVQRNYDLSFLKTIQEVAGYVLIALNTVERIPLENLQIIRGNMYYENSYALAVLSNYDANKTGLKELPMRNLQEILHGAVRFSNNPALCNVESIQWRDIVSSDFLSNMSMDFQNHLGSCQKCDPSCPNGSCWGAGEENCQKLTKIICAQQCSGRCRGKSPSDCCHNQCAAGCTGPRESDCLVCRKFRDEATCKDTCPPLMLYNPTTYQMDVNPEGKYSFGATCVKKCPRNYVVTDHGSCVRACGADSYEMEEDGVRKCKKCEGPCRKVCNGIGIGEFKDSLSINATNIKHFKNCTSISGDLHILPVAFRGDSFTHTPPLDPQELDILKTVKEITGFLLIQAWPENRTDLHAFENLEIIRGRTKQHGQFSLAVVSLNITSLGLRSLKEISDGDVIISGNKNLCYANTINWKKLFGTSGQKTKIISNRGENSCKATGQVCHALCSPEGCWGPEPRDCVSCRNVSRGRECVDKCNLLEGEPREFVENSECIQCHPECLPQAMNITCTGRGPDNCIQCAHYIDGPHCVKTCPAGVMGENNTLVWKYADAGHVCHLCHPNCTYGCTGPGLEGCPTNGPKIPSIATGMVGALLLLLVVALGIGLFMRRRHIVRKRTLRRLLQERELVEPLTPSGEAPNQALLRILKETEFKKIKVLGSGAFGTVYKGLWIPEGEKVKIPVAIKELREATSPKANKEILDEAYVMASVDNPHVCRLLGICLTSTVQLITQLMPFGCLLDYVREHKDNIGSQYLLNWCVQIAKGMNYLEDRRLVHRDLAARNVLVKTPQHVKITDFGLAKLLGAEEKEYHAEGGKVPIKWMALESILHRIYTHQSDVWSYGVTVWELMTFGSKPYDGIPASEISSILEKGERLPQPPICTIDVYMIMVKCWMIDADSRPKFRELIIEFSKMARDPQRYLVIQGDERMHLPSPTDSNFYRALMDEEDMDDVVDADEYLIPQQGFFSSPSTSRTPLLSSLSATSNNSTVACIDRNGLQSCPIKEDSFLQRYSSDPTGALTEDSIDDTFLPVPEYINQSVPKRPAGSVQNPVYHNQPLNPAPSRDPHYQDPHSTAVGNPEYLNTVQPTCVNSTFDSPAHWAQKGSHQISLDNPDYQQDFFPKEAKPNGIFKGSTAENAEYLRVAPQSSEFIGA
Experiment: SelectScreen Profiling, Z'-LYTE kinase assay, HER1 (EGFR)
Format: biochemical
Conditions: 1 μM compound, ATP at Km, read-out: HER1 inh % @1 μM
Known inhibition at 1 µM of a selection of compounds
Your answer is read as %, so omit the unit and give the number.

Past entries and their recorded results:
OCCNC(=S)Nc1ccc(-c2nc(N3C[C@H]4CC[C@@H](C3)O4)c3cccn3n2)cc1 : 1
O=C(Nc1ccc(C(=O)N2CC(O)C2)cc1)Nc1ccc(-c2nc(N3CCOCC3)c3cccn3n2)cc1 : -1

Field: inhibition at 1 µM (HER1 (EGFR) (Homo sapiens)). Entry: CN(C)CCCNC(=O)c1ccc(NC(=O)Nc2ccc(-c3nc(N4CCOCC4)c4cccn4n3)cc2)cc1
1

Another compound: CN1CCCN(C(=O)c2ccc(NC(=O)Nc3ccc(-c4nc(N5CCOCC5)c5cccn5n4)cc3)cc2)CC1
2

Proceed to CN(C)CCNC(=O)c1ccc(NC(=O)Nc2ccc(-c3nc(N4CCOCC4)c4cccn4n3)cc2)cc1
-2

Entry O=C(Nc1ccc(-c2nc(N3CCOCC3)c3cccn3n2)cc1)Nc1cccnc1 please
-1

Please do the same for CN(C)C1CCN(C(=O)c2ccc(NC(=O)Nc3ccc(-c4nc(N5CCOCC5)c5cccn5n4)cc3)cc2)CC1 as well.
-2

Similarly, CN(C)[C@@H]1CCN(C(=O)c2ccc(NC(=O)Nc3ccc(-c4nc(N5CCOCC5)c5cccn5n4)cc3)cc2)C1 ?
1

And what about the compound CN1CCN(C(=O)c2ccc(NC(=O)Nc3ccc(-c4nc(N5CCOCC5)c5cccn5n4)cc3)cc2)CC1 ?
0

// repeat for O=C(NCCO)Nc1ccc(-c2nc(N3CCOCC3)c3cccn3n2)cc1 and report
-1

Thanks! And CC(C)(C)C(=O)OCCNC(=O)Nc1ccc(-c2nc(N3C[C@H]4CC[C@@H](C3)O4)c3cccn3n2)cc1 ?
1

And the next one, O=C(Nc1ccc(C(=O)N2CCC(O)CC2)cc1)Nc1ccc(-c2nc(N3CCOCC3)c3cccn3n2)cc1 ?
0

====

Target: VEGF2 (Homo sapiens)
Sequence (P35968 20-1356): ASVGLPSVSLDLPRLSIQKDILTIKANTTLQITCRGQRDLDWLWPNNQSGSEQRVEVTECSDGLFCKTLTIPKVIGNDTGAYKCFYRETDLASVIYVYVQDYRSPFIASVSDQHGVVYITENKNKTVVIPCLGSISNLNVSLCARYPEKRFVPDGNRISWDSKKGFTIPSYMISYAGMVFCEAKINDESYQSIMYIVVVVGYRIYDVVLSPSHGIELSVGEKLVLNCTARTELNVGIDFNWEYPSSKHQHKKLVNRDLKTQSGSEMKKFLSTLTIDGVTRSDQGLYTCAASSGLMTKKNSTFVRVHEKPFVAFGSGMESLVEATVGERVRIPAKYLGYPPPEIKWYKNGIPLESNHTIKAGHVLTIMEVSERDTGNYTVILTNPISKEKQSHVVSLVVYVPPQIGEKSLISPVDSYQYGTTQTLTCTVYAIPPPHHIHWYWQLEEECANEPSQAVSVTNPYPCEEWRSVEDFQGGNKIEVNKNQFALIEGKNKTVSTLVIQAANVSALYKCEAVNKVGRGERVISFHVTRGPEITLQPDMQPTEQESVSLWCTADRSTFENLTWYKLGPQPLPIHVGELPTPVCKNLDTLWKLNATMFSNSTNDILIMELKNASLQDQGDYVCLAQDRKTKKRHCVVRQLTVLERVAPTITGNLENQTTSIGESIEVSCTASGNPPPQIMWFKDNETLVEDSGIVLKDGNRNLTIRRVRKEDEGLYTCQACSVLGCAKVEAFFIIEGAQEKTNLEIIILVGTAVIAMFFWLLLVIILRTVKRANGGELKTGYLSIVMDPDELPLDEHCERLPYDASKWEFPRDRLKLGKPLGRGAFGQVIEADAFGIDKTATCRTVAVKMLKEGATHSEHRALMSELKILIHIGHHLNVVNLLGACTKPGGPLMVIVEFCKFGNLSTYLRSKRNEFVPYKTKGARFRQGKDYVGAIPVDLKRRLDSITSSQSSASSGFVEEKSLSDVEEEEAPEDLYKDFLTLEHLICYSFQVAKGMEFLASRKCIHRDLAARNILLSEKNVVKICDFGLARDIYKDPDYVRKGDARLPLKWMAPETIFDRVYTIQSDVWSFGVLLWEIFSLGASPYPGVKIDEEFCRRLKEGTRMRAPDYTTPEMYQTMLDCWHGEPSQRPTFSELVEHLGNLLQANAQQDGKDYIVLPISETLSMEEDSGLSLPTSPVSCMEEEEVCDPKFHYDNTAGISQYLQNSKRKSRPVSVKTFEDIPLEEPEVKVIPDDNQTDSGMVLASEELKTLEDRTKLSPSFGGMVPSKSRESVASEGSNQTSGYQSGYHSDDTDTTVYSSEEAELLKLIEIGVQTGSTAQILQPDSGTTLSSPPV
Assay: SelectScreen Profiling, Z'-LYTE kinase assay, VEGF2
Type: biochemical
Conditions: 1 μM compound, ATP at Km, read-out: VEGF 2 inh % @1 μM
Recorded inhibition at 1 µM for the following compounds
Note: unit % is implicit; provide only the numeric part.

O=C(Nc1ccc(-c2nc(N3CCOCC3)c3cccn3n2)cc1)Nc1cccnc1 : 8
O=C(NCCO)Nc1ccc(-c2nc(N3CCOCC3)c3cccn3n2)cc1 : 11

Lab note: need inhibition at 1 µM for OCCNC(=S)Nc1ccc(-c2nc(N3C[C@H]4CC[C@@H](C3)O4)c3cccn3n2)cc1 on VEGF2 (Homo sapiens), anyone have it?
-10

====

Experiment: Rat pharmacokinetic study (IV and PO)
Type: in vivo
Conditions: blood, IV 5 mg/kg
observable: MRT (h)
// units = h; emit number, no label

O=C(Nc1ccc(-c2nc(N3CCOCC3)c3cccn3n2)cc1)Nc1cccnc1 : 1.7
O=C(NCCO)Nc1ccc(-c2nc(N3CCOCC3)c3cccn3n2)cc1 : 1.84

Please find the next compound below.
May I ask what MRT has been recorded for CN(C)C1CCN(C(=O)c2ccc(NC(=O)Nc3ccc(-c4nc(N5CCOCC5)c5cccn5n4)cc3)cc2)CC1 ?
5.57

====

Biological target: PI3Kα (Homo sapiens)
Sequence (P42336 whole entry): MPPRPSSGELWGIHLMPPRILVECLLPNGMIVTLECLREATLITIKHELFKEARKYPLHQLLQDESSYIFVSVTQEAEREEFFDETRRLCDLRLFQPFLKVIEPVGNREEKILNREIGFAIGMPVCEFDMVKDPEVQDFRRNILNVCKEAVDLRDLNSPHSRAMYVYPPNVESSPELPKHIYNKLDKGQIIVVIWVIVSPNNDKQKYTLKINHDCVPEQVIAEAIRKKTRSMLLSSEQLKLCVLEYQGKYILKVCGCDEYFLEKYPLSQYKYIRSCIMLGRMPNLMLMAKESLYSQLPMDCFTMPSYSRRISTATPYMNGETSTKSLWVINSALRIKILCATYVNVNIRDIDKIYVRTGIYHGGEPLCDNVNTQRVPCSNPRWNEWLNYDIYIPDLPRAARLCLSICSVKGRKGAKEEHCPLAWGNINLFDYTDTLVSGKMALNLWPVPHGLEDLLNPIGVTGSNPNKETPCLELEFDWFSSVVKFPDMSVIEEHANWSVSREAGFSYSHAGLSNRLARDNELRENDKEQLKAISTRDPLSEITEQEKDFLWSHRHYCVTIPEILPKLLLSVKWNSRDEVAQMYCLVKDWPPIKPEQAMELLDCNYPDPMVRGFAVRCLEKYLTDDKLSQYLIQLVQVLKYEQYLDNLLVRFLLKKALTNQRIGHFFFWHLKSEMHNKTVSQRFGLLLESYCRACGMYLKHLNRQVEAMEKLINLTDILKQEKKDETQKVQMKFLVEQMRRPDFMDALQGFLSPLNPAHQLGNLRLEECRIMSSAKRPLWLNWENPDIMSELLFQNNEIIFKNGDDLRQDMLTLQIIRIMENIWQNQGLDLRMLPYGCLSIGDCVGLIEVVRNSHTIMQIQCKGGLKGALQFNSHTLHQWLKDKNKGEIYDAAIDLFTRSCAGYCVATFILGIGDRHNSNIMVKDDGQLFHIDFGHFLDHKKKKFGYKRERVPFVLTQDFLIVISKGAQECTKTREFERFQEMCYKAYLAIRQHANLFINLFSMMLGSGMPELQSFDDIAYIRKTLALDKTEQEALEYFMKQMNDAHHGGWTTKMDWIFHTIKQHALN
Sequence (P27986 whole entry partner): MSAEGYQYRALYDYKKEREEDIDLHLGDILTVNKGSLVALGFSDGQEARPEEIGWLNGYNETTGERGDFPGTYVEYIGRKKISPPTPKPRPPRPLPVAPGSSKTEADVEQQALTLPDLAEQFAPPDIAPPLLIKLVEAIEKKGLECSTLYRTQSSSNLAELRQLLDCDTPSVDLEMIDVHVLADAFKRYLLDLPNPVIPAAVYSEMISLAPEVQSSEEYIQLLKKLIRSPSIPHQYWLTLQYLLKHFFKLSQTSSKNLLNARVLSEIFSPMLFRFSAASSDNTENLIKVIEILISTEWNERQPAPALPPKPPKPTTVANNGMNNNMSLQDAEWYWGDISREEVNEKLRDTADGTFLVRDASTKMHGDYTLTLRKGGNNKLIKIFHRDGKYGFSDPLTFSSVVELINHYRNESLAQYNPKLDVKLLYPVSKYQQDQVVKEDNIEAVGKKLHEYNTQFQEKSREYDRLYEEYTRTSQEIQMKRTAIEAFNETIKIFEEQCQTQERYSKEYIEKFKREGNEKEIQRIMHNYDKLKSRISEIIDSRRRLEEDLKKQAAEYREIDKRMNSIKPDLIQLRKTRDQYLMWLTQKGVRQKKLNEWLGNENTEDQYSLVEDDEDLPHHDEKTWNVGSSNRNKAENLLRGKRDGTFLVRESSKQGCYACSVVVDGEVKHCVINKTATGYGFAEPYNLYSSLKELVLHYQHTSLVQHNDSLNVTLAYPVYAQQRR
Test: SelectScreen Profiling, Adapta kinase assay, PI3Kα
Assay type: biochemical
Conditions: 0.1 μM compound, ATP at Km, read-out: PI3Kα inh % @0.1 μM
observable: inhibition at 0.1 µM (%)
Respond numerically; units are % and should not be typed.

Example results:
O=C(Nc1ccc(C(=O)NCCN2CCOCC2)cc1)Nc1ccc(-c2nc(N3CCOCC3)c3cccn3n2)cc1 : -15
CN(C)C1CCN(C(=O)c2ccc(NC(=O)Nc3ccc(-c4nc(N5CCOCC5)c5cccn5n4)cc3)cc2)CC1 : 54
CN(C)CCNC(=O)c1ccc(NC(=O)Nc2ccc(-c3nc(N4CCOCC4)c4cccn4n3)cc2)cc1 : 0
O=C(Nc1ccc(-c2nc(N3CCOCC3)c3ccc(C(F)(F)F)n3n2)cc1)Nc1cccnc1 : 10
CCNC(=O)Nc1ccc(-c2nc(N3CCOC[C@H]3C)c3cccn3n2)cc1 : 10
OCCNC(=S)Nc1ccc(-c2nc(N3C[C@H]4CC[C@@H](C3)O4)c3cccn3n2)cc1 : 8
C[C@@H]1COCCN1c1nc(-c2ccc(NC(=O)Nc3cccnc3)cc2)nn2cccc12 : 25
O=C(Nc1ccncc1)Nc1ccc(-c2nc(N3CCOCC3)c3cccn3n2)cc1 : -13
CN1CCN(C(=O)c2ccc(NC(=O)Nc3ccc(-c4nc(N5CCOCC5)c5ccc(C(F)(F)F)n5n4)cc3)cc2)CC1 : 19
O=C(Nc1ccc(-c2nc(N3CCOCC3)c3cccn3n2)cc1)NC1CC1 : -8

Fill blank: measured inhibition at 0.1 µM of the molecule O=C(Nc1ccc(-c2nc(N3CCOCC3)c3cccn3n2)cc1)Nc1cccnc1 is ____.
11

Same question for C[C@@H](CO)NC(=O)Nc1ccc(-c2nc(N3CCOCC3)c3cccn3n2)cc1 please.
6

Queued: O=C(NCCO)Nc1ccc(-c2nc(N3CCOCC3)c3cccn3n2)cc1
9

====

Experiment: Rat pharmacokinetic study (IV and PO)
Assay type: in vivo
Conditions: blood, PO 10 mg/kg
Entries and their MRT
The reply should contain only the number, in h.

O=C(NCCO)Nc1ccc(-c2nc(N3CCOCC3)c3cccn3n2)cc1 [Example 29] : 2.9
OCCNC(=S)Nc1ccc(-c2nc(N3C[C@H]4CC[C@@H](C3)O4)c3cccn3n2)cc1 [Example 122] : 7.33
O=C(Nc1ccc(-c2nc(N3CCOCC3)c3cccn3n2)cc1)Nc1cccnc1 [Example 14] : 5.71

Quick check: MRT of CC(C)(C)C(=O)OCCNC(=O)Nc1ccc(-c2nc(N3CCOCC3)c3cccn3n2)cc1 [Example 128] ?
3.45

What do we get for S=C(Nc1ccc(-c2nc(N3CCOCC3)c3cccn3n2)cc1)Nc1cccnc1 [Example 106] ?
5.68

Can you check O=C(NCCO)Nc1ccc(-c2nc(N3C[C@H]4CC[C@@H](C3)O4)c3cccn3n2)cc1 [Example 127] next?
5.11

====

Property: half-life; scope: individual compounds
Experiment: Rat pharmacokinetic study (IV and PO)
Type: in vivo
Conditions: blood, IV 5 mg/kg
Return type: number; implicit unit h.

Study these solved cases before continuing.
O=C(Nc1ccc(-c2nc(N3CCOCC3)c3cccn3n2)cc1)Nc1cccnc1 [Example 14] : 1.3
CN1CCN(C(=O)c2ccc(NC(=O)Nc3ccc(-c4nc(N5CCOCC5)c5cccn5n4)cc3)cc2)CC1 [Example 46] : 3.25
O=C(NCCO)Nc1ccc(-c2nc(N3C[C@H]4CC[C@@H](C3)O4)c3cccn3n2)cc1 [Example 127] : 1.47

Continue with the compound presented below.
Name the recorded half-life for CN(C)C1CCN(C(=O)c2ccc(NC(=O)Nc3ccc(-c4nc(N5CCOCC5)c5cccn5n4)cc3)cc2)CC1 [Example 15] .
4.98

The origin of these recorded values is patent US11242346B2.
